- Method: NCI Yeast Anticancer Drug Screen. Data for the mec2-1 strain (AID 157)
- Assay conditions: S. cerevisiae mec2-1 strain, at 50.0 µM, stronger effect = higher value
The panel holds about 79,000 compounds, 15% with a hit somewhere; the sample as a whole holds those more often. Calls of active or inactive are those of the source. Rule as the data show it: active = growth inhibition above about 70%; inactive = the rest.
Provide the recorded growth inhibition for the entries that follow.

[in] Please give the documented growth inhibition of O=C1CSC(c2ccccc2[N+](=O)[O-])N1c1ccc(-n2c(-c3ccccc3)nc3ccccc3c2=O)cc1 (stereo not given)
[out] -10.1% (inactive)

[in] Give the measured growth inhibition for "COC(=O)/C(C#N)=C\n1c(=S)[nH]c2ccccc21"
[out] 2.55% (inactive)

[in] Provide only the value of recorded growth inhibition for Cc1cc(OC(C)C)cc(C)c1C(=O)OCC(C)CN1CCCC1 (stereo not given)
[out] -16.8% (inactive)

[in] State, in one line, measured growth inhibition of "CN(C)CCCNC(=O)Nc1ccc(Cl)cc1"
[out] 8.15% (inactive)

[in] Specify reported growth inhibition for the compound shown: "COc1cc(C(=O)Oc2c(C#N)sc3c2c(=O)n(-c2ccccc2)c(=S)n3-c2ccccc2)cc(OC)c1OC"
[out] 3.2% (inactive)

====

- Method: NCI Yeast Anticancer Drug Screen. Data for the bub3 strain (AID 167)
- Assay conditions: S. cerevisiae bub3 mutant strain, at 50.0 µM
- Description: Growth inhibition of yeast strains with defined genetic alterations is measured as a screen for potential anti-cancer activity. Selected strains with alterations in DNA damage repair or cell cycle control were exposed to compounds and growth inhibition was measured relative to vehicle treated controls. The strain used in this assay is bub3
Compounds without any hit were thinned out: in the full panel of roughly 79,000, 15% have a hit. Calls of active or inactive are those of the source. No stated cut-off is given here; in the data, active means growth inhibition above about 70%; inactive means the rest.
Parameter call: string, one of active, inactive

[in] I would be grateful if you could indicate the recorded call for "O=C1CCCC2=C1CC1=C(CCCC1=O)N2c1ccccc1C(=O)O" .
[out] inactive

[in] Which result was noted for this compound in the test: "CCOC(=O)CCN(CCC(=O)OCC)Cc1cc(Cl)c2cccnc2c1O"
[out] active

[in] Look up the recorded call for "O=C(O)COc1ccc([N+](=O)[O-])cc1/C=C1/SC(=S)N(c2ccccc2)C1=O" in this test.
[out] inactive

[in] Which outcome was assigned to "O=C(O)CNC(=O)OCc1ccccc1" in this test?
[out] inactive

[in] For "O=C1NC(=O)C(=C/C=C/C=C\C2C(=O)NC(=O)NC2=O)C(=O)N1" , what call appears in the results of this test?
[out] inactive

[in] What call does the record list for "CCCc1[nH]n(-c2ccccc2)c(=O)c1N=Nc1ccc(Cl)cc1" ?
[out] inactive

[in] Field: outcome | Entry: CCOC(=O)CC(C)C1(C=O)CCCCC1=O (stereo not drawn)
[out] inactive

[in] Called result for "O=C(Nc1ccccn1)c1ccc([N+](=O)[O-])cc1"
[out] inactive

[in] What outcome does the record of this test show for "O=[N+]([O-])c1ccc(N/N=C/CCCCl)c([N+](=O)[O-])c1" ?
[out] inactive

[in] So what was the verdict on "Nc1c(Cl)ncnc1Nc1cccc(C(F)(F)F)c1" in this test?
[out] inactive

[in] // param item: CC(C)CCCC(C)C1CCC2C3CCC(O)C(C)(CCCO)C3CCC12C (stereo not drawn) ; yields the recorded call
[out] inactive

[in] Hi team, can someone confirm the assay call for C[S+]1C=C(c2ccccc2)SC=C1c1ccccc1 (stereo not drawn) ?
[out] inactive

[in] Recorded test call requested for "Nc1ccc(C(=O)Nc2nccs2)cc1"
[out] inactive

[in] Record request — test call for "Nc1ccc(S(=O)(=O)/N=C(\NS(=O)(=O)c2ccc(N)cc2)c2ccccc2)cc1"
[out] inactive

[in] What classification did CCC(O)C(C)[N+](=O)[O-] (stereo not drawn) end up with in this test?
[out] inactive

[in] Call for entry C=C1CC[N+]2(CCCC)CCCC12 (stereo not drawn) :
[out] inactive

[in] For "N#CCCN(CCC#N)c1ccc(/C=C2/C=C(c3ccccc3)OC2=O)cc1" , what call appears in the results of this test?
[out] inactive

[in] Write down the call the test reported for this compound. Item: "C#CCOCCC(C(=O)O)C(=O)O"
[out] inactive

[in] I'd appreciate the recorded outcome for "CN1CCN(c2c3c(nc4ccccc24)CCCC3)CC1" from this test.
[out] inactive

[in] Lab log entry: O=C1Nc2ccccc2C12CCNC2Cc1ccccc1 (stereo not drawn) — outcome as called in the assay?
[out] inactive

[in] Hi, sorry to bother you, what did the test record for "Cc1cc(NS(=O)(=O)c2ccc(Nc3c4ccccc4nc4c(C(=O)NCCN(C)C)cccc34)cc2)no1" ?
[out] inactive

[in] Tell me the recorded outcome of this test for "O=C(CCCc1ccccc1)OCC(=O)c1ccc(-c2ccccc2)cc1" .
[out] inactive

[in] Dear all, I need the recorded test outcome for "CC(C)Oc1c(NCCO)c2cc(Cl)ccc2oc1=O" , thank you.
[out] inactive

[in] What classification did CCCCCCCC/C=C/CCCCCC1CCCC(C)N1 (stereo not drawn) end up with in this test?
[out] inactive

[in] Any idea what this test logged for "Clc1ccc2c(c1)Cc1ccccc1-2" ?
[out] inactive

[in] // return assay outcome for CN(C)CC1CCCC(CN(C)C)C1=NOC(=O)c1ccccc1 (stereo not drawn)
[out] inactive

[in] Which outcome did this test record for the compound CC(C(=O)c1ccc(Cl)cc1)/C(=N/NC(=O)NN)C(=O)Nc1cccc(C(F)(F)F)c1 (stereo not drawn) ?
[out] inactive

[in] What was the test verdict on "C[Si](C)(C)Nc1ncnc2c1ncn2[Si](C)(C)C" ?
[out] inactive

[in] # fetch the recorded call for "O=C(O)C(=O)C(=O)O" here
[out] inactive

[in] Dear all, I need the recorded test outcome for "O=C(NCC(O)CNC(=O)C(F)(F)F)C(F)(F)F" , thank you.
[out] inactive

[in] Called result for "O=C(O)/C=C(\Br)C(=O)O"
[out] inactive

[in] Check the results log: what was the call for "CC(C)c1cc2c(O)c(c1)Cc1cc(C(C)C)cc(c1O)Cc1cc(C(C)C)cc(c1O)Cc1cc(C(C)C)cc(c1O)Cc1cc(C(C)C)cc(c1O)Cc1cc(C(C)C)cc(c1O)C2" ?
[out] inactive

[in] Which outcome was assigned to NNC1=Nc2ccc(Cl)cc2C(=S)N2CSCC12 (stereo not drawn) in this test?
[out] inactive

[in] Given "Nc1ccccc1CN1C(=O)CCC1=O" , state the outcome it received in this test.
[out] inactive

[in] Identify the outcome logged in this assay for the compound shown: "CCOC(OCC)c1ccccc1C"
[out] inactive

[in] What was the test verdict on "Cn1c(=S)[nH]c2sc3c(c2c1=O)CCCCC3" ?
[out] inactive

[in] In this assay, the call recorded for O=C(O)C1CC(O)c2ccccc2C1c1ccccc1 (stereo not drawn) was what?
[out] inactive

[in] Hi, sorry to bother you, what did the test record for "CCCCNc1c(C(=O)N2CCCCC2)cnc2c1cnn2CC" ?
[out] inactive

[in] What is the recorded call for this compound in the test? "CCCCCCCCCCCCCCCCOc1ccc2ccccc2c1"
[out] inactive

[in] Assay result, entry C=C[C@@]1(C)CCC2(O)C(CCC3C2(C)CCC[C@@]3(C)COC(=O)CC(=O)OC)C1 (stereo partly drawn) — outcome?
[out] active

[in] Please let me know the test result on file for "c1ccc2c(c1)nnn2CN1CCOCC1" .
[out] inactive

[in] Check the results log: what was the call for Cc1ccc2c(c1)-c1c3c(nn1C)-c1ccccc1SC3O2 (stereo not drawn) ?
[out] inactive

[in] For "CNC(=O)Nc1nnnc2ccccc12" , what call appears in the results of this test?
[out] inactive

====

Field: growth inhibition. Provide a value for each of the molecules that follow.
- Method: NCI Yeast Anticancer Drug Screen. Data for the mec2-1 strain (AID 157)
- Assay conditions: S. cerevisiae mec2-1 strain, at 50.0 µM, stronger effect = higher value
About 79,000 compounds went through this panel and 15% of them were active in at least one assay; those are over-represented in the sample as a whole.
The response must be a number in % with no trailing unit.

[in] Consider the molecule "O=C(O)c1ccc(Nc2nc3ccccc3nc2C(=O)O)cc1" . State its measured growth inhibition.
[out] -26.8

[in] # return recorded growth inhibition for input CC(C)=C1CCC(CN2CCCC2)C1=O (stereo not given)
[out] 13.4

[in] Determine its reported growth inhibition: "O=C1OCCc2c1[nH]c1ccccc21"
[out] 10.7

[in] Tell me measured growth inhibition for "CCCCN(CCCC)S(=O)(=O)N1CCOCC1" please.
[out] -10.1

[in] Return the recorded growth inhibition value; entry: "Cc1ccc(C(C)C)c(O)c1NC(=S)N/N=C\c1cc(Cl)ccc1O"
[out] 22.8

====

For each entry below, report its growth inhibition value.
- Method: NCI Yeast Anticancer Drug Screen. Data for the sgs1 mgt1 strain (AID 161);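 also: 0% = growth of cultures given vehicle only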
- Assay conditions: S. cerevisiae sgs1 mgt1 strain, at 50.0 µM, stronger effect = higher value
Compounds without any hit were thinned out: in the full panel of roughly 79,000, 15% have a hit.
I only need the number, in %, no unit after it.

[in] Fill in growth inhibition for record "COCOc1ccc(C=O)cc1"
[out] -14.3

[in] Determine its reported growth inhibition: "O=C(Nc1ccc(N=C=S)cc1Cl)c1cc(Cl)cc(Cl)c1O"
[out] 78.5

[in] Identify measured growth inhibition corresponding to "CCOC(=O)C1=C(C(C)=O)C(c2ccccc2[N+](=O)[O-])C(C(C)=O)=C(C(=O)OCC)N1"
[out] -9.2

[in] Identify measured growth inhibition associated with "O=C1OCCc2c1[nH]c1ccccc21"
[out] 5.65

[in] Give growth inhibition for the following molecule: OC(COc1cccc(C(F)(F)F)c1)CN1CCN(c2ccccc2)CC1 (configuration not stated)
[out] 93.5

[in] Output measured growth inhibition for this item: CC(C)CC(NC(c1ccccc1)P(=O)(O)O)C(=O)O (configuration not stated)
[out] -22.1

[in] Give the value of growth inhibition reported for the following: "OC1CC=CC1"
[out] -4.6

[in] Answer with reported growth inhibition of "ON(C=Nc1ccccc1)c1ccccc1"
[out] 6.35

[in] Answer with reported growth inhibition of "CN(C)c1nnnn1-c1c(N)n(C)c(=O)n(C)c1=O"
[out] 0

[in] Retrieve growth inhibition measured for "NC(=O)c1ccc(=S)[nH]c1" and print it.
[out] -7.55

[in] For the molecule CC(C)C(NC(=O)CI)C(=O)Nc1ccc(C(=O)O)c(O)c1 (configuration not stated) , report growth inhibition.
[out] 5.7

[in] Return the recorded growth inhibition value; entry: COc1ccc(C(O)C2CC(=O)NN=C2C)cc1OC (configuration not stated)
[out] -3.3

[in] Retrieve growth inhibition measured for "CC(=O)OCOC(=O)CN(CC(=O)OCOC(C)=O)Cc1cc2c(cc1OC(C)=O)Oc1cc(OC(C)=O)c(CN(CC(=O)OCOC(C)=O)CC(=O)OCOC(C)=O)cc1C21OC(=O)c2ccccc21" and print it.
[out] 15.2

[in] Report growth inhibition for "O=C(COc1cc(Cl)c(Cl)cc1Cl)Nc1ccccc1Br"
[out] 0.1

[in] Quickly give me recorded growth inhibition for "CC/C(Cl)=N\OC(=O)Nc1ccc(F)cc1F"
[out] -4.05

[in] Please indicate growth inhibition recorded for "Cn1ncc(=O)[nH]c1=O"
[out] -23.4

[in] Specify reported growth inhibition for the molecule shown: "CC(=O)/C=C\c1cc(C)ccc1O"
[out] 9.3

Data provenance: PubChem BioAssay (NCI)
